Tested on: unfractionated heparin (UFH)
procedureSummary: aPTT clotting assay, UFH 0.2 U/mL in plasma (Example 7)
Assay type: biochemical
testSettings: UFH 0.2 U/mL in plasma
Label 1 when UFH (aPTT) EC50 is at or above 3 µg/mL; otherwise label -1.

- CNc1cccc(C(=O)N[C@@H](CCCCN)C(=O)Nc2ccc(OC)c(C(=O)N[C@@H](CCCCN)C(=O)Nc3ccc(OC)c(C(=O)N[C@@H](CCCCN)C(=O)Nc4ccc(OC)c(C(N)=O)c4)c3)c2)c1: 1

Does UFH (aPTT) EC50 meet or surpass 3 µg/mL for COc1ccc(NC(=O)[C@H](CCCCN)NC(=O)c2cc(NC(=O)[C@H](CCCCN)NC(=O)c3cc(NC(=O)[C@H](CCCCN)NC(=O)c4cccc(NC(=O)[C@@H](N)CCCCN)c4)ccc3OC)ccc2OC)cc1C(N)=O ? -1

State whether the measured UFH (aPTT) EC50 reaches 3 µg/mL, counting equality as reaching it, for COc1ccc(NC(=O)[C@H](CCCNC(=N)N)NC(=O)c2cc(NC(=O)[C@H](CCCNC(=N)N)NC(=O)c3cc(NC(=O)[C@H](CCCNC(=N)N)NC(=O)c4cc(NC(=O)[C@@H](N)CCCNC(=N)N)ccc4OC)ccc3OC)ccc2OC)cc1C(N)=O [Compound 45] -1

Can COc1ccc(NC(=O)[C@H](CCCCN)NC(=O)c2cc(NC(=O)[C@H](CCCCN)NC(=O)c3cc(NC(=O)[C@H](CCCCN)NC(=O)c4cc(NC(=O)[C@@H](N)CCCCN)ccc4OC)ccc3OC)ccc2OCC(=O)O)cc1C(N)=O be said to have UFH (aPTT) EC50 at or above 3 µg/mL? -1

Hi team, for COc1ccc(NC(=O)[C@H](CCCCN)NC(=O)c2cc(NC(=O)[C@H](CCCCN)NC(=O)c3cc(NC(=O)[C@H](CCCCN)NC(=O)c4cc(NC(=O)[C@@H](N)CCCCN)ccc4OCC(=O)O)ccc3OC)ccc2OC)cc1C(N)=O , is the recorded UFH (aPTT) EC50 at or above 3 µg/mL? 1

Does the compound COc1cc(OC)c(C(=O)N[C@H]2CC[C@H](NC(=O)c3cc(C(=O)NCCN(C)C)c(OCCCCCN)cc3OCCCCCN)CC2)cc1C(=O)NC1CCC(NC(=O)c2cc(C(=O)NCCN(C)C)c(OCCCCCN)cc2OCCCCCN)CC1 (stereo partly drawn) have recorded UFH (aPTT) EC50 that is 3 µg/mL or more? 1

Dear colleague, could you confirm whether COc1ccc(NC(=O)[C@@H](CCCNC(=N)N)NC(=O)c2cc(NC(=O)[C@@H](CCCNC(=N)N)NC(=O)c3cc(NC(=O)[C@@H](CCCNC(=N)N)NC(=O)c4cc(NC(C)=O)ccc4OC)ccc3OC)ccc2OC)cc1C(N)=O has UFH (aPTT) EC50 at or above 3 µg/mL? -1
